The values you see were collected from patent US10292976B2.

Each entry below carries its recorded IC50 at 48 h.
assay: Cytotoxicity by WST-8 assay, tsNRK; assay type: cell-based; settings: rat, tsNRK cells, 2nd measurement

- molecule: "Nc1cc2cccnc2c2ncccc12 [L3, (1,10)-Phenanthrolin-5-amine]"
  IC50 at 48 h: "3080 nM"
- molecule: "c1ccc(CN(Cc2ccccn2)Cc2ccccn2)nc1 [L6, Tris(2-pyridylmethyl)amine]"
  IC50 at 48 h: "1900 nM"
- molecule: "c1ccc(CN(CCN(Cc2ccccn2)Cc2ccccn2)Cc2ccccn2)nc1 [L7, reference compound]"
  IC50 at 48 h: "2090 nM"

----------
system: HEK293 (human embryonic kidney 293 cells); assay: Cytotoxicity by WST-8 assay, HEK293; assay type: cell-based; details: Table 3, 48 hours
measurement kind: IC50 (µM)

- smiles entry: "O=S(=O)([O-])[O-].[Cu+2].c1ccc(CN(Cc2ccccn2)Cc2ccccn2)nc1"
  measurement kind: "IC50"
  qualifying sign: "="
  assay result: 6
- smiles entry: "O=S(=O)([O-])[O-].[Ni+2].c1ccc(CN(Cc2ccccn2)Cc2ccccn2)nc1"
  measurement kind: "IC50"
  qualifying sign: "="
  assay result: 47.6
- smiles entry: "O=S(=O)([O-])[O-].[Co+2].c1ccc(CN(Cc2ccccn2)Cc2ccccn2)nc1"
  measurement kind: "IC50"
  qualifying sign: "="
  assay result: 20.6
- smiles entry: "O=S(=O)([O-])[O-].[Mn+2].c1ccc(CN(Cc2ccccn2)Cc2ccccn2)nc1"
  measurement kind: "IC50"
  qualifying sign: "="
  assay result: 3.7
- smiles entry: "O=S(=O)([O-])[O-].[Zn+2].c1ccc(CN(Cc2ccccn2)Cc2ccccn2)nc1"
  measurement kind: "IC50"
  qualifying sign: ">"
  assay result: 100
- smiles entry: "O=S(=O)([O-])[O-].[Fe+2].c1ccc(CN(Cc2ccccn2)Cc2ccccn2)nc1"
  measurement kind: "IC50"
  qualifying sign: "="
  assay result: 6.1

----------
Each entry below carries its recorded IC50 at 48 h.
assay: Cytotoxicity by WST-8 assay, HeLa; type: cell-based, human; conditions: human, HeLa cells, HeLa, 48 hours, 2nd measurement (Table 1); read-out: IC50 value, cytotoxicity

- molecule: "c1ccc(CN(Cc2ccccn2)Cc2ccccn2)nc1 [L6, Tris(2-pyridylmethyl)amine]"
  IC50 at 48 h [µM]: 5.16
- molecule: "c1ccc(CN(CCN(Cc2ccccn2)Cc2ccccn2)Cc2ccccn2)nc1 [L7, reference compound]"
  IC50 at 48 h [µM]: 4.96

----------
test system: C3H10T1/2 (murine multipotential mesenchymal cells); test: Cytotoxicity by WST-8 assay, C3H10T1/2; assay type: cell-based; conditions: Table 3, 48 hours
pIC50: −log10 of the molar value.
Answer not satisfied if pIC50 is under 5, and satisfied if it is 5 or more.

- smiles entry: "O=S(=O)([O-])[O-].[Co+2].c1ccc(CN(Cc2ccccn2)Cc2ccccn2)nc1"
  group: "not satisfied"
- smiles entry: "O=S(=O)([O-])[O-].[Mn+2].c1ccc(CN(Cc2ccccn2)Cc2ccccn2)nc1"
  group: "satisfied"
- smiles entry: "O=S(=O)([O-])[O-].[Ni+2].c1ccc(CN(Cc2ccccn2)Cc2ccccn2)nc1"
  group: "not satisfied"
- smiles entry: "O=S(=O)([O-])[O-].[Zn+2].c1ccc(CN(Cc2ccccn2)Cc2ccccn2)nc1"
  group: "not satisfied"
